measured quantity: melting point

# annotated cases, reported melting point shown
structure_smiles_string=CCCC[C@H](CN(O)C=O)C(=O)N[C@H](C(=O)OC)C(C)(C)C measured="63.5 to 64.5 °C"
structure_smiles_string=CCCC[C@H](CN(O)C=O)C(=O)N[C@H](C(=O)OC(C)C)c1ccccc1 measured="142 to 145 °C"
structure_smiles_string=CCCC[C@H](CN(O)C=O)C(=O)N[C@H](C(=O)OCC)C(C)(C)C measured="85 to 87 °C"
structure_smiles_string=CCCC[C@H](CN(O)C=O)C(=O)N[C@@H](Cc1ccccc1)C(=O)OC(C)(C)C measured="95 to 98 °C"

Per the record, `CCCC[C@H](CN(O)C=O)C(=O)N[C@H](C(=O)OC1CCCC1)c1ccccc1` has melting point of 119 to 120 °C

// `CCCC[C@H](CN(O)C=O)C(=O)N[C@H](C(=O)OCC)c1ccccc1` : melting point value = 134 to 136 °C
